Recorded measurements of self-cleavage kobs at 160 uM GlcN6P, one per entry
B1: glmS ribozyme (parent)
chain: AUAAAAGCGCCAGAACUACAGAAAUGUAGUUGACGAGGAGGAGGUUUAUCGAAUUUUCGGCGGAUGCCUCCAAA

- Variants of: B1
- protocol-text: self-cleavage kobs at 160 uM GlcN6P; higher = faster cleavage; RNA array
- applied-conditions: with glucosamine-6-phosphate
This sample holds only a part of the variants without activity.
measured-endpoint: self-cleavage kobs at 160 uM GlcN6P (s⁻¹)

INSERT INTO assay_data (variant_code, unit_descriptor, operator, assay_value) VALUES
  ('U30G A39U G60U', 's⁻¹', '<', '1e-05'),
  ('G41U C70U', 's⁻¹', '=', 0.000709),
  ('A15C U55A', 's⁻¹', '=', 0.000516),
  ('U47C G51U C68U', 's⁻¹', '<', '1e-05'),
  ('C16U C67G', 's⁻¹', '=', '7.2e-05'),
  ('U31C C71A', 's⁻¹', '=', '7.42e-05'),
  ('C10U G40U G66U C67U', 's⁻¹', '<', '1e-05'),
  ('C10U A14G A15G G43A U45G A52G A64G', 's⁻¹', '<', '1e-05'),
  ('C8U C16U C50G G60A G66U', 's⁻¹', '=', '9.7e-05'),
  ('A12U U31C', 's⁻¹', '=', 0.000727),
  ('A12G C67G C68A', 's⁻¹', '=', '6.68e-05'),
  ('A14C C16U', 's⁻¹', '=', 0.000144),
  ('U45C C67A', 's⁻¹', '=', 0.000424),
  ('A15C C71U', 's⁻¹', '=', 0.000358),
  ('G38C C61A', 's⁻¹', '<', '1e-05'),
  ('G29A C50A A53C', 's⁻¹', '<', '1e-05'),
  ('G44C C61G', 's⁻¹', '<', '1e-05'),
  ('U45C G62U', 's⁻¹', '<', '1e-05'),
  ('G7A U46G', 's⁻¹', '<', '1e-05'),
  ('U56G U69C C70A', 's⁻¹', '=', '4.37e-05'),
  ('C34A U45G', 's⁻¹', '<', '1e-05'),
  ('C16A C70U', 's⁻¹', '=', 0.000117);
